target: T1, succinyl-L-Ala-L-Ala-L-Pro-L-Phe-p-nitroanilide (SEQ ID NO: 1)
T1 chain: AAPF
Readout: kcat/Km pH 10 (% wild-type)
Give bare numbers, in % wild-type.

Consider the following illustrative entries.
{"Protein": "N74D/S101A/V102W (control variant of WO1995010591; sequence SEQ ID NO: 3) (protein) AQSVPWGISRVQAPAAHNRGLTGSGVKVAVLDTGISTHPDLNIRGGASFVPGEPSTQDGNGHGTHVAGTIAALDNSIGVLGVAPSAELYAVKVLGASGSGAWSSIAQGLEWAGNNGMHVANLSLGSPSPSATLEQAVNSATSRGVLVVAASGNSGAGSISYPARYANAMAVGATDQNNNRASFSQYGAGLDIVAPGVNVQSTYPGSTYASLNGTSMATPHVAGAAALVKQKNPSWSNVQIRNHLKNTATSLGSTNLYGSGLVNAEAATR", "kcat/Km pH 10 (% wild-type)": 2260}
{"Protein": "wild-type subtilisin of Bacillus lentus (SEQ ID NO: 2) (protein) AQSVPWGISRVQAPAAHNRGLTGSGVKVAVLDTGISTHPDLNIRGGASFVPGEPSTQDGNGHGTHVAGTIAALNNSIGVLGVAPSAELYAVKVLGASGSGSVSSIAQGLEWAGNNGMHVANLSLGSPSPSATLEQAVNSATSRGVLVVAASGNSGAGSISYPARYANAMAVGATDQNNNRASFSQYGAGLDIVAPGVNVQSTYPGSTYASLNGTSMATPHVAGAAALVKQKNPSWSNVQIRNHLKNTATSLGSTNLYGSGLVNAEAATR", "kcat/Km pH 10 (% wild-type)": 100}
{"Protein": "N74D/S99G/V102W/S126G/N198A/N212S/T254P (variant of sequence SEQ ID NO: 5) (protein) AQSVPWGISRVQAPAAHNRGLTGSGVKVAVLDTGISTHPDLNIRGGASFVPGEPSTQDGNGHGTHVAGTIAALDNSIGVLGVAPSAELYAVKVLGASGGGSWSSIAQGLEWAGNNGMHVANLSLGGPSPSATLEQAVNSATSRGVLVVAASGNSGAGSISYPARYANAMAVGATDQNNNRASFSQYGAGLDIVAPGVAVQSTYPGSTYASLSGTSMATPHVAGAAALVKQKNPSWSNVQIRNHLKNTATSLGSPNLYGSGLVNAEAATR", "kcat/Km pH 10 (% wild-type)": 10800}
{"Protein": "N74D/S97D/S126G/P204I/T254P/S259N (variant of sequence SEQ ID NO: 6) (protein) AQSVPWGISRVQAPAAHNRGLTGSGVKVAVLDTGISTHPDLNIRGGASFVPGEPSTQDGNGHGTHVAGTIAALDNSIGVLGVAPSAELYAVKVLGADGSGSVSSIAQGLEWAGNNGMHVANLSLGGPSPSATLEQAVNSATSRGVLVVAASGNSGAGSISYPARYANAMAVGATDQNNNRASFSQYGAGLDIVAPGVNVQSTYIGSTYASLNGTSMATPHVAGAAALVKQKNPSWSNVQIRNHLKNTATSLGSPNLYGNGLVNAEAATR", "kcat/Km pH 10 (% wild-type)": 97}

Switching to the query record.
Param item = N74D/S99G/V102W/S126G/D191E/N198G/N212S/T254P (variant of sequence SEQ ID NO: 4) (protein) AQSVPWGISRVQAPAAHNRGLTGSGVKVAVLDTGISTHPDLNIRGGASFVPGEPSTQDGNGHGTHVAGTIAALDNSIGVLGVAPSAELYAVKVLGASGGGSWSSIAQGLEWAGNNGMHVANLSLGGPSPSATLEQAVNSATSRGVLVVAASGNSGAGSISYPARYANAMAVGATDQNNNRASFSQYGAGLEIVAPGVGVQSTYPGSTYASLSGTSMATPHVAGAAALVKQKNPSWSNVQIRNHLKNTATSLGSPNLYGSGLVNAEAATR ; retrieve measured kcat/Km pH 10 (% wild-type).
5100
